// provenance: the NIST ThermoML archive (doi:10.1016/j.fluid.2013.07.012)

assay: xn = mol fraction of the nth substance listed; settings: 313.15 K; 101 kPa; Liquid; Direct current cell with electrodes; x1 = 0.25
Values of electrical conductivity greater than or equal to 0.2 S/m map to 1.0; values below map to 0.0.

COMPOUND | LABEL CLASS
C[P+](c1ccccc1)(c1ccccc1)c1ccccc1.[Br-] [methyltriphenylphosphonium bromide] + OCC(O)CO | 0.0
CCN(CC)CCO.Cl [2-(diethylamino)ethanol hydrochloride] + OCCO | 1.0
C[N+](C)(C)CCO.[Cl-] [choline chloride] + OCC(O)CO | 1.0
C[P+](c1ccccc1)(c1ccccc1)c1ccccc1.[Br-] [methyltriphenylphosphonium bromide] + OCCO | 1.0
CCN(CC)CCO.Cl [2-(diethylamino)ethanol hydrochloride] + OCC(O)CO | 0.0

---

experiment: xn = mol fraction of the nth substance listed; details: 318.15 K; 101 kPa; Liquid; Direct current cell with electrodes; x1 = 0.34
log10 of electrical conductivity by entry:
EXPERIMENTAL READOUT: log10 of electrical conductivity (log10 of the value in S/m)

COMPOUND | log10 of electrical conductivity
CCN(CC)CCO.Cl [2-(diethylamino)ethanol hydrochloride] + OCC(O)CO | -0.57
C[N+](C)(C)CCO.[Cl-] [choline chloride] + OCC(O)CO | -0.40
C[N+](C)(C)CCO.[Cl-] [choline chloride] + OCCO | 0.20
C[P+](c1ccccc1)(c1ccccc1)c1ccccc1.[Br-] [methyltriphenylphosphonium bromide] + OCC(O)CO | -1.39
CCN(CC)CCO.Cl [2-(diethylamino)ethanol hydrochloride] + OCCO | 0.04

---

electrical conductivity by entry:
assay: xn = mol fraction of the nth substance listed; settings: 343.15 K; 101 kPa; Liquid; Direct current cell with electrodes; x1 = 0.2
EXPERIMENTAL READOUT: electrical conductivity (S/m)

MOLECULE | EXPERIMENTAL READOUT | REPORTED VALUE
CCN(CC)CCO.Cl [2-(diethylamino)ethanol hydrochloride] + OCCO | electrical conductivity | 2.03
C[P+](c1ccccc1)(c1ccccc1)c1ccccc1.[Br-] [methyltriphenylphosphonium bromide] + OCCO | electrical conductivity | 0.819
C[P+](c1ccccc1)(c1ccccc1)c1ccccc1.[Br-] [methyltriphenylphosphonium bromide] + OCC(O)CO | electrical conductivity | 0.197
CCN(CC)CCO.Cl [2-(diethylamino)ethanol hydrochloride] + OCC(O)CO | electrical conductivity | 0.465

---

assay: xn = mol fraction of the nth substance listed; details: 343.15 K; 101 kPa; Liquid; Direct current cell with electrodes; x1 = 0.34
EXPERIMENTAL READOUT: electrical conductivity (S/m)

MOLECULE | REPORTED VALUE
C[P+](c1ccccc1)(c1ccccc1)c1ccccc1.[Br-] [methyltriphenylphosphonium bromide] + OCC(O)CO | 0.149
C[N+](C)(C)CCO.[Cl-] [choline chloride] + OCC(O)CO | 0.895
CCN(CC)CCO.Cl [2-(diethylamino)ethanol hydrochloride] + OCC(O)CO | 0.652
C[N+](C)(C)CCO.[Cl-] [choline chloride] + OCCO | 2.56
CCN(CC)CCO.Cl [2-(diethylamino)ethanol hydrochloride] + OCCO | 1.94

---

assay: xn = mol fraction of the nth substance listed; conditions: 313.15 K; 101 kPa; Liquid; Direct current cell with electrodes; x1 = 0.2
electrical conductivity by entry:

MOLECULE | DISPLAY UNIT | electrical conductivity
CCN(CC)CCO.Cl [2-(diethylamino)ethanol hydrochloride] + OCCO | S/m | 0.97
CCN(CC)CCO.Cl [2-(diethylamino)ethanol hydrochloride] + OCC(O)CO | S/m | 0.139
C[P+](c1ccccc1)(c1ccccc1)c1ccccc1.[Br-] [methyltriphenylphosphonium bromide] + OCC(O)CO | S/m | 0.041
C[P+](c1ccccc1)(c1ccccc1)c1ccccc1.[Br-] [methyltriphenylphosphonium bromide] + OCCO | S/m | 0.325

---

assay: xn = mol fraction of the nth substance listed; details: 323.15 K; 101 kPa; Liquid; Direct current cell with electrodes; x1 = 0.34
EXPERIMENTAL READOUT: log10 electrical conductivity (log10 of the value in S/m)

COMPOUND | log10 electrical conductivity
C[N+](C)(C)CCO.[Cl-] [choline chloride] + OCC(O)CO | -0.29
CCN(CC)CCO.Cl [2-(diethylamino)ethanol hydrochloride] + OCCO | 0.10
C[N+](C)(C)CCO.[Cl-] [choline chloride] + OCCO | 0.24
CCN(CC)CCO.Cl [2-(diethylamino)ethanol hydrochloride] + OCC(O)CO | -0.47
C[P+](c1ccccc1)(c1ccccc1)c1ccccc1.[Br-] [methyltriphenylphosphonium bromide] + OCC(O)CO | -1.30

---

electrical conductivity by entry:
test: xn = mol fraction of the nth substance listed; details: 303.15 K; 101 kPa; Liquid; Direct current cell with electrodes; x1 = 0.25

COMPOUND | DISPLAY UNIT | electrical conductivity
C[P+](c1ccccc1)(c1ccccc1)c1ccccc1.[Br-] [methyltriphenylphosphonium bromide] + OCCO | S/m | 0.16
CCN(CC)CCO.Cl [2-(diethylamino)ethanol hydrochloride] + OCCO | S/m | 0.688
C[P+](c1ccccc1)(c1ccccc1)c1ccccc1.[Br-] [methyltriphenylphosphonium bromide] + OCC(O)CO | S/m | 0.0172
CCN(CC)CCO.Cl [2-(diethylamino)ethanol hydrochloride] + OCC(O)CO | S/m | 0.0958
C[N+](C)(C)CCO.[Cl-] [choline chloride] + OCC(O)CO | S/m | 0.155

---

experiment: xn = mol fraction of the nth substance listed; conditions: 308.15 K; 101 kPa; Liquid; Direct current cell with electrodes; x1 = 0.25
Sorting guide: entries reporting electrical conductivity beneath 0.2 S/m go in the Criterion met pile, the rest go in the Criterion not met pile.

COMPOUND | LABEL CLASS
CCN(CC)CCO.Cl [2-(diethylamino)ethanol hydrochloride] + OCCO | Criterion not met
CCN(CC)CCO.Cl [2-(diethylamino)ethanol hydrochloride] + OCC(O)CO | Criterion met
C[P+](c1ccccc1)(c1ccccc1)c1ccccc1.[Br-] [methyltriphenylphosphonium bromide] + OCC(O)CO | Criterion met
C[P+](c1ccccc1)(c1ccccc1)c1ccccc1.[Br-] [methyltriphenylphosphonium bromide] + OCCO | Criterion met

---

assay: xn = mol fraction of the nth substance listed; details: 298.15 K; 101 kPa; Liquid; Direct current cell with electrodes; x1 = 0.25
electrical conductivity by entry:
EXPERIMENTAL READOUT: electrical conductivity (S/m)

MOLECULE | REPORTED VALUE
C[N+](C)(C)CCO.[Cl-] [choline chloride] + OCC(O)CO | 0.146
CCN(CC)CCO.Cl [2-(diethylamino)ethanol hydrochloride] + OCC(O)CO | 0.0602
C[P+](c1ccccc1)(c1ccccc1)c1ccccc1.[Br-] [methyltriphenylphosphonium bromide] + OCC(O)CO | 0.0103
C[P+](c1ccccc1)(c1ccccc1)c1ccccc1.[Br-] [methyltriphenylphosphonium bromide] + OCCO | 0.109
CCN(CC)CCO.Cl [2-(diethylamino)ethanol hydrochloride] + OCCO | 0.543

---

experiment: xn = mol fraction of the nth substance listed; conditions: 333.15 K; 101 kPa; Liquid; Direct current cell with electrodes; x1 = 0.2

MOLECULE | electrical conductivity
CCN(CC)CCO.Cl [2-(diethylamino)ethanol hydrochloride] + OCC(O)CO | 0.325 S/m
C[P+](c1ccccc1)(c1ccccc1)c1ccccc1.[Br-] [methyltriphenylphosphonium bromide] + OCCO | 0.622 S/m
CCN(CC)CCO.Cl [2-(diethylamino)ethanol hydrochloride] + OCCO | 1.71 S/m
C[P+](c1ccccc1)(c1ccccc1)c1ccccc1.[Br-] [methyltriphenylphosphonium bromide] + OCC(O)CO | 0.123 S/m

---

assay: xn = mol fraction of the nth substance listed; conditions: 328.15 K; 101 kPa; Liquid; Direct current cell with electrodes; x1 = 0.2
EXPERIMENTAL READOUT: electrical conductivity (S/m)

MOLECULE | REPORTED VALUE
CCN(CC)CCO.Cl [2-(diethylamino)ethanol hydrochloride] + OCC(O)CO | 0.272
CCN(CC)CCO.Cl [2-(diethylamino)ethanol hydrochloride] + OCCO | 1.51
C[P+](c1ccccc1)(c1ccccc1)c1ccccc1.[Br-] [methyltriphenylphosphonium bromide] + OCCO | 0.539
C[P+](c1ccccc1)(c1ccccc1)c1ccccc1.[Br-] [methyltriphenylphosphonium bromide] + OCC(O)CO | 0.0965
